target: FemA (SAR1388) (Staphylococcus aureus, UniProt P0A0A5); construct: recombinant, C-terminal hexahistidine tag; experiment: in vitro glycyl transfer assay with purified FemA, monoglycyl lipid II and […]-glycine, TLC/phosphoimaging; supported by pull-down with biotinylcyslabdan
Sequence (P0A0A5 whole entry): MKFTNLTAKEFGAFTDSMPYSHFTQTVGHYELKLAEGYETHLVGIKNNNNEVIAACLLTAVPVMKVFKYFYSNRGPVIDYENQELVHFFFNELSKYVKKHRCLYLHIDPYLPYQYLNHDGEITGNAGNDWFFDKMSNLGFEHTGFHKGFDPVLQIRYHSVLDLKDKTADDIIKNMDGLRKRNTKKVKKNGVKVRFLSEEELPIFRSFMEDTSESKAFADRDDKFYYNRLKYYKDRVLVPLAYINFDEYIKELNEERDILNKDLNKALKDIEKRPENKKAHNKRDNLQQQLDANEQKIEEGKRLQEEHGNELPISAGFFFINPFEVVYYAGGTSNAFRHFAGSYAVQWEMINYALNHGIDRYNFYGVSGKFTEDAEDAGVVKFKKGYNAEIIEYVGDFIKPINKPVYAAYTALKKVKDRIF
measuredEndpoint: pIC50
To interpret pIC50, take it as minus log10 of a concentration measured in moles per litre.

Exercise: Need pIC50, item C=C/C(C)=C/C[C@@H]1[C@@]2(C)CCCC(C)(C)[C@@H]2C[C@H](O)[C@]1(O)CSC[C@H](NC(C)=O)C(=O)O [cyslabdan]
Solution: 3.28

Source of measurements: paper PMC3490914
